molecular target: anti-CD28 scFv (VH - linker 1 - VL) (biotinylated (site not stated)); assay: phage ELISA as above; wells pre-incubated with soluble CD28 (competitor)
Sequence (scFv, as listed by the source): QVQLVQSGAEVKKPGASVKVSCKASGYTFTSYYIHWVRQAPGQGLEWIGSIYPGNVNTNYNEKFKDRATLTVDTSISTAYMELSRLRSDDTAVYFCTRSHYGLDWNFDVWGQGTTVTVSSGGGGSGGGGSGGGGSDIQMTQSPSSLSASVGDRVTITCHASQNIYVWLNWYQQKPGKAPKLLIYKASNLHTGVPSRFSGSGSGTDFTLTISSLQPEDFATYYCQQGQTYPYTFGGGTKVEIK
Observation type: CD28 scFv signal in presence of CD28
Answer with a number only.

Examples with answers:
MDWCPMFLWHECFS [Phage-360 clonal phage peptide … (as printed)]	0.193
IDWCPLHLWHECYH [Phage-353 clonal phage peptide IDWCPLHLWHECYH]	0.182
MDWCPIHLWYECFN [Phage-352 clonal phage peptide MDWCPIHLWYECFN]	0.203
MDWCPRHLWDECFN [Phage-341 clonal phage peptide MDWCPRHLWDECFN]	0.268
MDWCPRFLWNECFY [Phage-338 clonal phage peptide MDWCPRFLWNECFY]	0.287

Query (binder): MDWCPKPLWHVCFA [Phage-337 clonal phage peptide MDWCPKPLWHVCFA] ; field requested: CD28 scFv signal in presence of CD28
0.152

Param item = MDWCPRPLWHECFA [Phage-359 clonal phage peptide MDWCPRPLWHECFA] ; retrieve measured CD28 scFv signal in presence of CD28.
0.138

What value of CD28 scFv signal in presence of CD28 has been recorded for this entry: MDWCPMYLWDECFF [Phage-356 clonal phage peptide MDWCPMYLWDECFF]
0.178

Which CD28 scFv signal in presence of CD28 value belongs to MDWCPRTLWDQCFF [Phage-339 clonal phage peptide MDWCPRTLWDQCFF] ?
0.314

Field request: CD28 scFv signal in presence of CD28 | item: MDWCPRHLWHACFS [Phage-346 clonal phage peptide MDWCPRHLWHACFS]
0.167

Item LDWCPRHLWALCFN [Phage-349 clonal phage peptide LDWCPRHLWALCFN] has what recorded CD28 scFv signal in presence of CD28?
0.24

Item MAWCPWYLWDECFN [Phage-348 clonal phage peptide MAWCPWYLWDECFN] has what recorded CD28 scFv signal in presence of CD28?
0.267

Could you tell me which CD28 scFv signal in presence of CD28 is on file for MNWCPMHLWAECFN [Phage-363 clonal phage peptide MNWCPMHLWAECFN] ?
0.14

From: patent US20260242478A1
